tested target: T1, IL-2Rβ (UniProt P14784 27-240, limits assumed, biotinylated (site not stated))
T1 construct: also called CD122; IL-2Rbeta
T1 sequence (looked up): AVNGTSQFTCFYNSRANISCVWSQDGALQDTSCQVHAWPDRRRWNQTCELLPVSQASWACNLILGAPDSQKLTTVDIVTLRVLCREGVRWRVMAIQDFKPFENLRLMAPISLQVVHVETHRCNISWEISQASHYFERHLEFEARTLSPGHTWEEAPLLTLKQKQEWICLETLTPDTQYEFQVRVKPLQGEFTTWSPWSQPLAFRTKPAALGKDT
experiment summary: SPR Biacore T100, kinetic fit; biotinylated IL-2Rβ on chip
reported metric: Kd (nM)
Use nM as the unit, but write only the number.

INSERT INTO results (binder, reported_metric, test_value) VALUES
  ('in silico designed IL-2 variant SEQ ID NO: 16, MSA fusion protein (ligand, not shown: large carriers; small tags and cut ends) APTSSSTKKTQLQLEHLLLDLQMILNMLNNYDNPKLTRLLTFKFYMPKKATSLKHLQCLEEELKPLEEALNQAQSKNFHLDPRDLISNINVIVLELKGSETTFMCEYADETATIIEFLNRWITFCQSIISTLT', 'Kd', 221);

Lookup: What value of Kd has been reported for the following binder? in silico designed IL-2 variant SEQ ID NO: 5, MSA fusion protein (ligand, not shown: large carriers; small tags and cut ends) APTSSSTKKTQLQLEHLLLDLQMILNMLNNYDNPKLTRLLTFKFYMPKKATSLKHLQCLEEELKPLEEALNDAGDDPKTIRDLISNINVIVLELKGSETTFMCEYADETATIIEFLNRWITFCQSIISTLT
Found: 292

Hello, the source for this data is patent US20220324934A1, in case you need it.
